- STUDY_SYSTEM: T1, dimeric hIL-4R-hFc (human, UniProt P24394 26-232)
- T1 construct: also called hIL-4R-Fc; not shown: human Fc (hFc)
- T1 sequence: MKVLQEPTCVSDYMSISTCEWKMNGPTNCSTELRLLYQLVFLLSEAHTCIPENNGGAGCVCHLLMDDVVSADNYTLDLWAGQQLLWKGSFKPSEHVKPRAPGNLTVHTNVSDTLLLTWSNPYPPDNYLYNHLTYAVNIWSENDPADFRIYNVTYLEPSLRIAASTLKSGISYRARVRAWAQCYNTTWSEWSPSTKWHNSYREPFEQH
- PROTOCOL_SUMMARY: SPR; reduction of hIL-4 (50 nM) binding to captured hIL-4R-hFc after antibody; competitor hIL-4
- Description: Purified hIL-4R-hFc molecules were captured by goat anti-human IgG polyclonal antibody immobilized on CM-5 to a density of 260 RU, to prepare a receptor-coated surface.
PROPERTY_NAME: % Inhibition (BIAcore) (%)
// note: answer is a bare numeric in %

Problem: I would be grateful if you could share the reported % Inhibition (BIAcore) for VAK7G8-5 (antibody, V domains shown, Apparently tested with mouse constant region (anti-mouse IgG capture/detection)) VH: QVRLVESGGGVVQPGGSLRLSCTASGFIFRSYGMHWVRQAPGRGLEWVAVISYDGSKTFYVDSVKVRFTISRDNSKNTLYLEMNSLRVDDTAVYFCVKEGRSGSWFDPWGQGTLVAVSS VL: DIHMTQSPSSLSASVGDRVTITCRASQAINNFLAWFQQKPGKTPKSLIFATSSLQSGVPSRFSGSGSGTDFTLTISSLQPEDFATYYCQQYNSHPWTFGQGTKVEIR .
Solution: 95

Problem: # repeat for VAK9C6-11 (antibody, V domains shown, Apparently tested with mouse constant region (anti-mouse IgG capture/detection)) VH: QVQLVESGGGVVQPGRSLRLSCAASGFTFSSYGMHWVRQAPGKGLEWVTVISYDGSIKYYVDSVKGRFTISRDNSKNTLFLQMNSLRVEDTAVYYCAKEGRKYGMDVWGQGTTVTVSS VL: DIQMTQSPSTLSASVGDRVTITCRASQIISSLLVWYQQKPGKAPKLLIYKASSLESGVPSRFSGSGSGTEFTLTISSLQPDDFATYYCQQYHSYMYTFGQGTKLEIK
Solution: 96

Problem: # repeat for VAK5H4-4 (antibody, V domains shown, Apparently tested with mouse constant region (anti-mouse IgG capture/detection)) VH: QVRLVESGGGVVQPGGSLRLSCVASGFTFRSYGMHWVRQAPGRGLEWVAVISYDGSKTFYVDSVKVRFTISRDNSKNTLYLEMNSLRVDDTAVYFCVKEGRSGSWFDPWGQGTLVAVSS VL: DIQMTQSPSSLSASVGDRVTITCRASQAINNFLAWFQQKPGKTPNSLIFATSSLQSGVPSRFSAGGSGTDFTLTISSLQPEDFATYYCQQYNSHPWTFGQGTKVEIK
Solution: 96
